- Test system: DU145
- procedure summary: Euclidean distance of Cell Painting phenotypic profile (signed KS, 77 features) to DMSO centroid (dimensionless distance); 5 or 10 uM (library dependent); higher = stronger phenotypic change vs DMSO (phenoactivity)
- cond: 48 h
measurement kind: Euclidean distance
Respond using a number only.

{"cpd smiles": "Clc1ccc2c(c1)CCc1cccnc1C2=C1CCNCC1", "target or test system": "DU145", "Euclidean distance": 1.51}
{"cpd smiles": "O=C(NC[C@H]1CN(c2ccc(N3CCOCC3=O)cc2)C(=O)O1)c1ccc(Cl)s1", "target or test system": "DU145", "Euclidean distance": 0.946}

Now let's try a different one.
Entry CN(C)CCCN1c2ccccc2Sc2ccc(Cl)cc21 ; Euclidean distance = 1.56

====

- Tested on: 786-O
- procedure summary: Euclidean distance of Cell Painting phenotypic profile (signed KS, 77 features) to DMSO centroid (dimensionless distance); 5 or 10 uM (library dependent); higher = stronger phenotypic change vs DMSO (phenoactivity)
- cond: 48 h
measurement kind: Euclidean distance
Respond using a number only.

{"compound": "Cc1ccc(NC(=O)c2ccc(CN3CCN(C)CC3)cc2)cc1Nc1nc(-c2cccnc2)cs1", "measurement kind": "Euclidean distance", "readout value": 2.6}

Now let's try a different one.
Entry Cc1nnc(C(C)C)n1C1C[C@H]2CC[C@@H](C1)N2CC[C@H](NC(=O)C1CCC(F)(F)CC1)c1ccccc1 (stereo in doubt) ; Euclidean distance = 1.35

====

Each entry below lists one item and its recorded Euclidean distance value.
- Test system: OVCAR4
- procedure summary: Euclidean distance of Cell Painting phenotypic profile (signed KS, 77 features) to DMSO centroid (dimensionless distance); 5 or 10 uM (library dependent); higher = stronger phenotypic change vs DMSO (phenoactivity)
- cond: 48 h
Where a name gives a salt, the structure may show the parent alone.
Respond using a number only.

Entry CC(C)c1cc(-c2ccc(F)c3ccccc23)nc(N)n1 ; Euclidean distance = 1.28

Entry CCN(CCO)CCCC(C)Nc1ccnc2cc(Cl)ccc12 (configuration not stated) [Hydroxychloroquine Sulfate] ; Euclidean distance = 3.58

Entry COC(=O)c1ccc2c(C(=Nc3ccc(N(C)C(=O)CN4CCN(C)CC4)cc3)c3ccccc3)c(O)[nH]c2c1 [Nintedanib Ethanesulfonate Salt] ; Euclidean distance = 4.19

Entry CC[C@H]1OC(=O)[C@H](C)[C@@H](O[C@H]2C[C@@](C)(OC)[C@@H](O)[C@H](C)O2)[C@H](C)[C@@H](O[C@@H]2O[C@H](C)C[C@H](N(C)C)[C@H]2O)[C@](C)(O)C[C@@H](C)CN(C)[C@H](C)[C@@H](O)[C@]1(C)O [Azithromycin] ; Euclidean distance = 1.08

Entry Cc1cccc(Nc2ccncc2S(=O)(=O)NC(=O)NC(C)C)c1 [Torsemide] ; Euclidean distance = 0.866

====

- System: 786-O
- procedure summary: Euclidean distance of Cell Painting phenotypic profile (signed KS, 77 features) to DMSO centroid (dimensionless distance); 5 or 10 uM (library dependent); higher = stronger phenotypic change vs DMSO (phenoactivity)
- cond: 48 h
Structures can show the parent of a compound that is named as a salt.
measurement kind: Euclidean distance
Respond using a number only.

Please review the entries below; each comes with its answer.
{"compound": "CC(CCc1ccccc1)NCC(O)c1ccc(O)c(C(N)=O)c1 (centres undefined) [Labetalol HCl]", "Euclidean distance": 1.08}
{"compound": "Nc1ccc2cc3ccc(N)cc3nc2c1", "Euclidean distance": 3.98}

Euclidean distance for 786-O with input Cc1cc(C)c(CNC(=O)c2cc(-c3ccc(CN4CCOCC4)cc3)cc3c2cnn3C2CCCC2)c(=O)[nH]1 equals 1.48

Euclidean distance for 786-O with input COc1cc(CNC(=O)CCCC/C=C\C(C)C)ccc1O equals 0.772

Euclidean distance for 786-O with input CS(=O)(=O)c1ccc([C@@H](O)[C@@H](CF)NC(=O)C(Cl)Cl)cc1 equals 1.1

Euclidean distance for 786-O with input O=C1C[C@@H](c2ccc(O[C@@H]3O[C@H](CO)[C@@H](O)[C@H](O)[C@H]3O)cc2)Oc2cc(O)ccc21 equals 1.07

Euclidean distance for 786-O with input Cc1ccc(NC(=O)c2ccc(CN3CCN(C)CC3)cc2)cc1Nc1nccc(-c2cccnc2)n1 [Imatinib (STI571)] equals 1.85

Euclidean distance for 786-O with input CC(C)(C)NC[C@H](O)c1ccc(O)c(CO)c1 [levalbuterol tartrate] equals 0.685

Euclidean distance for 786-O with input CCc1nc(N)nc(N)c1-c1ccc(Cl)cc1 equals 1.19
